- TARGET: Cytochrome P450 1A1 (Homo sapiens)
- Sequence (P04798 whole entry): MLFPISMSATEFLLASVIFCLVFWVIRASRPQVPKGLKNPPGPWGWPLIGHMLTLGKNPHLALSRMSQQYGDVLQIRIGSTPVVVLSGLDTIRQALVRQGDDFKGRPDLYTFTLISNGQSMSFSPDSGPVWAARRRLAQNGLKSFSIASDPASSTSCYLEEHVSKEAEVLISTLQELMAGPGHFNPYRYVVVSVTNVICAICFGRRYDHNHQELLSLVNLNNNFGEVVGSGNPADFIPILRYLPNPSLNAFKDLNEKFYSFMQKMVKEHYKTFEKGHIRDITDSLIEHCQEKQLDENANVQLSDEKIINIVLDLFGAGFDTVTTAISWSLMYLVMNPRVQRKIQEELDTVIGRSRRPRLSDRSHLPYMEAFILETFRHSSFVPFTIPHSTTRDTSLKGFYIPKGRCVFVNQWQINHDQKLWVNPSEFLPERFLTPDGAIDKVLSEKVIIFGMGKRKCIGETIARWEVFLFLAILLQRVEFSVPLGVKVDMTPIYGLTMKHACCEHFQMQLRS
- MEASUREMENT PROTOCOL: Inhibition of recombinant human CYP1A1 using 7-ethoxyresorufin as substrate after 15 mins in presence of NADP+ by EROD assay
- Assay type: ADME
pIC50: −log10 of the molar value.
MEASURED ATTRIBUTE: pIC50

1. COc1ccc(OC)c2c1c(OC)cc1c(=O)cc(-c3cncc(O)c3)oc12 = 7.09

1. COc1ccc(OC)c2c1c(OC)cc1c(=O)cc(-c3ccnc(Cl)c3)oc12
2. COc1ccc(OC)c2c1c(OC)cc1c(=O)cc(-c3cncc(F)c3)oc12
3. COc1ccc(OC)c2c1c(OC)cc1c(=O)cc(-c3ccc(Cl)cn3)oc12
4. COc1ccc(OC)c2c1c(OC)cc1c(=O)cc(-c3ccncc3N)oc12
# ascending order, key=pIC50 Submit the labels in the order that the ranking request calls for.
1, 4, 2, 3
(1: 7.04, 4: 7.50, 2: 7.75, 3: 8.80)

---

- Species on record: Homo sapiens
- MEASUREMENT PROTOCOL: Selectivity index, ratio of IC50 for recombinant human CYP1A2 to IC50 for recombinant human CYP1B1
MEASURED ATTRIBUTE: Ratio IC50

1. COc1ccc(OC)c2c1c(OC)cc1c(=O)cc(-c3ccnc(O)c3)oc12 = > 16.3
2. COc1ccc(OC)c2c1c(OC)cc1c(=O)cc(-c3cncc(N)c3)oc12 = 27.4
3. COc1ccc(OC)c2c1c(OC)cc1c(=O)cc(-c3ccc(O)nc3)oc12 = > 1.5

Lab note: next compound to report on.
I'd like to know its Ratio IC50. The compound in question is "COc1ccc(OC)c2c1c(OC)cc1c(=O)cc(-c3cc(Cl)ccn3)oc12"
> 1190

---

- Organism: Homo sapiens
- MEASUREMENT PROTOCOL: Selectivity index, ratio of IC50 for recombinant human CYP1A1 to IC50 for recombinant human CYP1B1
MEASURED ATTRIBUTE: Ratio IC50

Take a look at these entries with their results.
1. COc1ccc(OC)c2c1c(OC)cc1c(=O)cc(-c3ccnc(O)c3)oc12 = 3.8
2. COc1ccc(OC)c2c1c(OC)cc1c(=O)cc(-c3ccncc3)oc12 = 33.7
3. COc1ccc(OC)c2c1c(OC)cc1c(=O)cc(-c3cccc(Cl)n3)oc12 = 19
4. COc1ccc(OC)c2c1c(OC)cc1c(=O)cc(-c3cncc(F)c3)oc12 = 18.1
5. COc1ccc(OC)c2c1c(OC)cc1c(=O)cc(-c3cccc(N)n3)oc12 = 8.7

P. COc1ccc(OC)c2c1c(OC)cc1c(=O)cc(-c3cncc(Br)c3)oc12
Q. COc1ccc(OC)c2c1c(OC)cc1c(=O)cc(-c3cccnc3N)oc12
R. COc1ccc(OC)c2c1c(OC)cc1c(=O)cc(-c3c[nH]c4ccccc34)oc12
S. COc1ccc(OC)c2c1c(OC)cc1c(=O)cc(-c3cc4ccccc4o3)oc12
# ascending order, key=Ratio IC50 Submit the labels in the order that the ranking request calls for.
Q, R, P, S

---

- Species on record: Homo sapiens
- MEASUREMENT PROTOCOL: Selectivity index, ratio of IC50 for recombinant human CYP1A1 to IC50 for recombinant human CYP1B1
MEASURED ATTRIBUTE: Ratio IC50

1) COc1ccc(OC)c2c1c(OC)cc1c(=O)cc(-c3ccc(N)nc3)oc12 = 31.4
2) COc1ccc(OC)c2c1c(OC)cc1c(=O)cc(-c3cccnc3Br)oc12 = 0.9
3) COc1ccc(OC)c2c1c(OC)cc1c(=O)cc(-c3ccc(Cl)cn3)oc12 = 11.4

I. COc1ccc(OC)c2c1c(OC)cc1c(=O)cc(-c3ccnc(N)c3)oc12
II. COc1ccc(OC)c2c1c(OC)cc1c(=O)cc(-c3ccco3)oc12
Given I and given II , which shows the smaller recorded Ratio IC50? In your reply, give the label of the chosen option.
I

a. COc1ccc(OC)c2c1c(OC)cc1c(=O)cc(-c3ccnc(Br)c3)oc12
b. COc1ccc(OC)c2c1c(OC)cc1c(=O)cc(-c3cncc(C)c3)oc12
c. COc1ccc(OC)c2c1c(OC)cc1c(=O)cc(-c3ccc(F)cn3)oc12
d. COc1ccc(OC)c2c1c(OC)cc1c(=O)cc(-c3ccc4cc[nH]c4c3)oc12
# desc sort on Ratio IC50 across 4 molecules Submit the labels in the order that the ranking request calls for.
c, d, a, b
(c: 240, d: 149, a: 58.5, b: 5.3)

P. COc1ccc(OC)c2c1c(OC)cc1c(=O)cc(-c3ccnnc3)oc12
Q. COc1ccc(OC)c2c1c(OC)cc1c(=O)cc(-c3cccc(F)n3)oc12
Given P and given Q , which shows the smaller recorded Ratio IC50? In your reply, give the label of the chosen option.
Q
